Several reports have described Ki for Histamine H3 receptor (Mus musculus, UniProt P58406); a selection of those results is presented here.
One threshold, 4 nM, splits the recorded Ki values: lower ones are 1, equal or higher ones are 0.

O=c1ccnc2c(-c3nnc(N4CCC(N5CCCCC5)CC4)s3)cccn12 : 1
C=CCC(O)(CC=C)c1ccc(OCCCN2CCCCC2)cc1 : 0
CC(=O)Nc1ccc(-c2cnc3nc(N4CCC(N5CCCCC5)CC4)sc3c2)cn1 : 0

Alright, here's another molecule for you.
# TODO verify Ki < 4 nM strictly for this molecule: Cn1c2c(c3ccccc31)CCN(C1CCN(C(=O)C3(F)CCN(Cc4ccnc(N)c4)CC3)CC1)CC2
0

###

Record: compiled Ki on Histamine H3 receptor (Mus musculus, UniProt P58406) from multiple reports.
Sequence (P58406 whole entry): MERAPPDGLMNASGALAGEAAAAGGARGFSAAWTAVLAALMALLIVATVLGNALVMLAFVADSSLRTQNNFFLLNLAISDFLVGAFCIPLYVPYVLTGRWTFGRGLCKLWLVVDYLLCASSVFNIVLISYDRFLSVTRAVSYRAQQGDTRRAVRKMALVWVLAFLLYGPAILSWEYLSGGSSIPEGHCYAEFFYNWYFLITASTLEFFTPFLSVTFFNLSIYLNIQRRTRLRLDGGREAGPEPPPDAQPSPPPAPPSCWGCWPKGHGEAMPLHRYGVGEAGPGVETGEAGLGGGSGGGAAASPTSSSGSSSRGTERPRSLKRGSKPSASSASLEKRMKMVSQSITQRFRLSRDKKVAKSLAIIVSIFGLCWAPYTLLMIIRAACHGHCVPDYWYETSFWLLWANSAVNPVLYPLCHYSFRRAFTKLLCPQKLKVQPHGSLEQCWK
The answer is to be given in nM; state only the numeric part.

Nc1cc(CN2CCC(F)(C(=O)N3CCC(N4Cc5ccccc5Cc5ccccc54)CC3)CC2)ccn1 : 44
O[C@H]1CC[C@H](c2ccc(OCCCN3CCCCC3)cc2)CC1 : 6.9
c1cc([C@H]2CC[C@H](N3CCC3)CC2)ccc1OCCCN1CCCCC1 : 1.6
CN1CCN([C@H]2CC[C@H](c3ccc(OCCCN4CCCCC4)cc3)CC2)CC1 : 2.3

Enter recorded Ki with Histamine H3 receptor (Mus musculus, UniProt P58406) for Fc1ccc(-c2cc3sc(N4CCC(N5CCCCC5)CC4)nc3cn2)cn1 here.
89

Report Ki on Histamine H3 receptor (Mus musculus, UniProt P58406) for this entry: Cc1nnc(-c2cccc(-c3nnc(N4CCC(N5CCCCC5)CC4)s3)c2)o1
40

Recall the reported Ki of CCC(O)(CC)c1ccc(OCCCN2CCCCC2)cc1 on Histamine H3 receptor (Mus musculus, UniProt P58406) and write it down.
14

Please look at COc1ccc2c(c1)CN(C1CCN(C(=O)C3(F)CCN(Cc4ccnc(N)c4)CC3)CC1)CCC2 and tell me its recorded Ki on Histamine H3 receptor (Mus musculus, UniProt P58406).
4

Find the measured Ki of OC1CCC(Cc2ccc(OCCCN3CCCCC3)cc2)CC1 (stereo not given) with Histamine H3 receptor (Mus musculus, UniProt P58406) as test system.
6.3

State Ki (Histamine H3 receptor (Mus musculus, UniProt P58406)) of Nc1cc(CN2CCC(F)(C(=O)N3CCC(N4CCc5ccccc5C4)CC3)CC2)ccn1 .
4

###

Compiled literature Ki, tested on Histamine H3 receptor (Mus musculus, UniProt P58406).
Assign labels as follows, please: YES for Ki below 8 nM; NO for Ki equal to or exceeding 8 nM.

Record excerpt, results attached:
c1ccc(CN[C@H]2CC[C@H](c3ccc(OCCCN4CCCCC4)cc3)CC2)cc1 : YES
Nc1cc(CN2CCC(F)(C(=O)N3CCC(N4CCCc5ccccc5C4)CC3)CC2)ccn1 : NO
Nc1cc(CN2CCC(F)(C(=O)N3CCC(N4CCNc5ccccc5C4)CC3)CC2)ccn1 : YES

Hi there! Is Ki for OC1(c2ccc(OCCCN3CCCCC3)cc2)CCCC1 below 8 nM, do you know?
YES

Take the compound c1cc([C@H]2CC[C@H](N3CCCCC3)CC2)ccc1OCCCN1CCCCC1 and say whether its Ki is less than 8 nM.
YES
